Data provenance: paper doi:10.1101/2019.12.17.880419

Biological target: T1, UHRF1 SRA (mouse, UniProt Q8VDF2 417-628)
T1 sequence: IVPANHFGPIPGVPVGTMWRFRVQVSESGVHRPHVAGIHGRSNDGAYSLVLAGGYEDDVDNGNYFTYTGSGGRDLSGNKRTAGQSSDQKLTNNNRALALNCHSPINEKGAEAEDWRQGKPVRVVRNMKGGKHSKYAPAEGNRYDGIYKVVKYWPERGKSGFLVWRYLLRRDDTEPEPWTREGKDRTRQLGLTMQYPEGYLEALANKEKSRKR
Experiment: ITC
Property label: pKd
Quick note: pKd means taking -log10 of the concentration in moles per liter.

Ask: Field request: pKd | item: fully-mCHG DNA (ITC) (dsDNA, 5mC on both strands in CHG context) DNA 1: TCACGCTGCGTGA DNA 2: TCACGCTGCGTGA
Reply: 5.73
